The measured values listed here are drawn from patent US6455286B1.

Tested on: R17
Test: R17 bacteriophage screen (photoinactivation, plaque assay on Hfr 3000 bacteria)
Format: cell-based
Experimental Context: compound at 32 μM; 15% FBS in DMEM; UVA 1 J/cm^2; average of 1-4 replicates
Assay Endpoint: Average log Inactivation, 32 μM (log)

Compound	Bound Operator	Value Observed
Cc1oc2cc3oc(=O)ccc3c(COCCN)c2c1C [Compound 39]	>	6.6
Cc1coc2cc3oc(=O)c(CN)cc3cc12 [Compound 41, 3-aminomethyl-4′-methylpsoralen]	=	0.6
Cc1oc2c(C)c3oc(=O)cc(C)c3cc2c1CN [AMT, 4′-aminomethyl-4,5′,8-trimethylpsoralen, reference compound]	>	6.5
Cc1oc2c(COCCN)c3oc(=O)cc(C)c3cc2c1C [Compound 40]	>	6.3
Cc1cc2cc3c(C)cc(=O)oc3c(CN)c2o1.Cl [Compound 33]	=	1.7
Cc1coc2c(C)c3oc(=O)c(COCCN)c(C)c3cc12 [Compound 37]	>	6.5
Cc1coc2cc3oc(=O)cc(CN)c3cc12 [Compound 42, 4-aminomethyl-4′-methylpsoralen]	=	1.2
Cc1oc2c(C)c3oc(=O)cc(CN)c3cc2c1C [Compound 36, 4-aminomethyl-4′,5′,8-trimethylpsoralen]	=	1.1
